molecular target: EIF2AK1 (human) (UniProt Q9BQI3); assay: KINOMEscan competition binding; conditions: compound 10.0 µM
Sequence (Q9BQI3 whole entry, looked up): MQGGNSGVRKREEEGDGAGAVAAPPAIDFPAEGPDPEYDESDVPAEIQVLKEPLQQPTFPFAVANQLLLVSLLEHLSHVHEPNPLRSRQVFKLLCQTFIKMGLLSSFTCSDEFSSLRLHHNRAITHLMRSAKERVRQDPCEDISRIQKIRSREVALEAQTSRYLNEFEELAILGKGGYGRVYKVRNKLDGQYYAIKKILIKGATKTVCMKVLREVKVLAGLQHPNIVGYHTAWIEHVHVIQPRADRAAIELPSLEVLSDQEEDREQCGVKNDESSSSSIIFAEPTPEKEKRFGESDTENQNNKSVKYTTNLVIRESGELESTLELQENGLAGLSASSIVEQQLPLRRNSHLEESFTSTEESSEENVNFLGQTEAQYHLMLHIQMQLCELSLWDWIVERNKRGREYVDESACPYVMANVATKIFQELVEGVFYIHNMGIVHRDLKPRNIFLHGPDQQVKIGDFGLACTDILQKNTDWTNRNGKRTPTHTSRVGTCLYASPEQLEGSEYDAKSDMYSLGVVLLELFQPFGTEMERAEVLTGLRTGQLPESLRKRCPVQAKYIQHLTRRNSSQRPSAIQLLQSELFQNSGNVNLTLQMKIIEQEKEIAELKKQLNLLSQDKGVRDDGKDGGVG
So I've got a bunch of molecules here, and I need their kinase still bound, per cent of control values.
Answers are plain numbers, in %.

// known answers, use as guide
# Molecule, kinase still bound, per cent of control / %
data = [
    ("CC1=C(C(=O)Nc2cc3cn[nH]c3cc2F)C(c2ccc(C(F)(F)F)cc2)CC(=O)N1 (stereo not drawn)", 89),
    ("CNC(=O)Nc1ccc(-c2nc(N3CC4CCC(C3)O4)c3cnn(C4CCC5(CC4)OCCO5)c3n2)cc1", 100),
    ("COc1cc2c(Nc3ccc(NC(=O)c4ccccc4)cc3)ncnc2cc1OCCCN1CCOCC1", 20),
    ("N#Cc1cc(-c2ccnc(Nc3ccc(-n4cnc(-c5cccnc5)n4)cc3)n2)cc(N2CCOCC2)c1", 100),
    ("CCN1CCN(Cc2ccc(NC(=O)c3ccc(C)c(/C=C/c4cnc5[nH]ccc5c4OC)c3)cc2C(F)(F)F)CC1", 78),
    ("CCc1nc(-c2cccc(C)c2)c(-c2ccnc(NC(=O)c3ccccc3)c2)s1", 100),
    ("N#C/C(=C1/Nc2ccccc2S1)c1ccnc(NCCc2cccnc2)n1", 100),
    ("CCN(CCO)CCCOc1ccc2c(Nc3cc(CC(=O)Nc4cccc(F)c4)[nH]n3)ncnc2c1", 5.2),
    ("O=c1[nH]c2ccccc2n1C1CCN(Cc2ccc(-c3nc4cc5[nH]cnc5cc4nc3-c3ccccc3)cc2)CC1", 87),
    ("C=CC(=O)Nc1ccc(C(=O)c2sc(Nc3ccc(N4CCN(C)CC4)cc3OC)nc2N)cc1", 100),
]

Dear reader, for each entry below, please note its kinase still bound, per cent of control.
1. CCCS(=O)(=O)Nc1ccc(F)c(C(=O)c2c[nH]c3ncc(Cl)cc23)c1F
2. COc1cc2ncnc(Nc3cccc(Cl)c3)c2cc1OC

1: 32; 2: 65

Form field: kinase still bound, per cent of control recorded for CC(=O)c1c(C)c2cnc(Nc3ccc(N4CCNCC4)cn3)nc2n(C2CCCC2)c1=O with EIF2AK1 (human) (UniProt Q9BQI3) (enter value)
32
